Literature IC50 values, system: the protein given by its sequence.
Protein target, amino acids: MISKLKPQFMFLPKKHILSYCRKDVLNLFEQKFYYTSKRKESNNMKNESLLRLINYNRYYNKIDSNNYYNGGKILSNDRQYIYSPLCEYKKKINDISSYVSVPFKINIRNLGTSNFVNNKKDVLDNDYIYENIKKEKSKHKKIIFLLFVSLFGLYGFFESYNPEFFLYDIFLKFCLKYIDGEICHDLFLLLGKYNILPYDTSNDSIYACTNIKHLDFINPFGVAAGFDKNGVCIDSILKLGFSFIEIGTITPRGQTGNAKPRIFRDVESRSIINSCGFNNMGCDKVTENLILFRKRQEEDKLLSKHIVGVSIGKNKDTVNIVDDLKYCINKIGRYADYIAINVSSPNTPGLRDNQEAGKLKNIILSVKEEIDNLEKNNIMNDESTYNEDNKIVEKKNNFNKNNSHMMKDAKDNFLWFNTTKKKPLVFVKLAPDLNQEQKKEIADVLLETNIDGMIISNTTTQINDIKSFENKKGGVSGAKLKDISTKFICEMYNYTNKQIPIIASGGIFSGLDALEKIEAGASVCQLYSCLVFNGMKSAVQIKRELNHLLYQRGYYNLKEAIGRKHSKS

Cc1cc(Nc2ccc(Cl)cc2)n2nc(CN)nc2n1 :: > 10 µM
Cc1cc(Nc2ccc(Cl)cc2)n2nc(CN(C)C)nc2n1 :: > 10 µM
CCOC(=O)c1sc(Nc2ccc3ccccc3c2)nc1C :: > 10 µM
CCOC(=O)c1sc(Nc2ccc(C)c(C)c2)nc1-c1ccccc1 :: > 10 µM
Cc1cc(Nc2ccccc2)n2ncnc2n1 :: > 100 µM

Inquiry: Indicate the recorded IC50 value for this molecule: "CCOC(=O)c1sc(Nc2ccc(OCc3ccccc3)c(Cl)c2)nc1-c1ccccc1"
Reply text: > 10 µM

Inquiry: Retrieve IC50 measured for "Cc1cc(Nc2ccccc2C(F)(F)F)n2ncnc2n1" and print it.
Reply text: > 100 µM

Inquiry: Answer with the recorded IC50 for the molecule listed here: "CNCCc1nc2nc(C)cc(Nc3ccc(Cl)cc3)n2n1"
Reply text: > 10 µM

Inquiry: Read off the recorded IC50 for "O=C(NC1CC1)c1ccc(-n2c(=O)[nH]c3ccccc32)s1"
Reply text: > 30 µM

Inquiry: # return recorded IC50 for input "CC(=O)c1sc(Nc2ccc(Br)c(C(F)(F)F)c2)nc1C"
Reply text: > 10 µM

Inquiry: Specify reported IC50 for the molecule shown: "Cc1cc(N)n2nc(SCc3ccccc3)nc2n1"
Reply text: > 100 µM

Inquiry: Return value of IC50 for input "COCCc1nc2nc(C)cc(Nc3ccc(Cl)cc3)n2n1" , no commentary.
Reply text: > 10 µM

Inquiry: Answer with the recorded IC50 of "Cc1cc(Nc2ccc(S(F)(F)(F)(F)F)cc2)n2nc(OCCN(C)C)nc2n1" only.
Reply text: > 10 µM

Inquiry: Dear colleague, please send me the reported IC50 for "CC(=O)c1sc(Nc2ccc(C)c(F)c2)nc1C" when you can.
Reply text: > 10 µM

Inquiry: Give the reported value of IC50 for this record: "CCOC(=O)c1sc(Nc2ccc3c(c2)CCCC3)nc1-c1ccccc1"
Reply text: > 10 µM

Inquiry: Please give the documented IC50 of "Cc1cc(Nc2ccc(S(F)(F)(F)(F)F)cc2)n2nc(CC(C)C)nc2n1"
Reply text: > 10 µM

Inquiry: Quote IC50 reported for "CCOC(=O)c1sc(Nc2ccc(C)c(Cl)c2)nc1C1CC1" please.
Reply text: > 10 µM
